FYI, the data here is from patent US5594009A.

Measured activity at 0.25 µM, listed per entry for reference.
system: ChAT activity of basal forebrain cultures; experiment: Basal Forebrain ChAT Activity Assay; type: cell-based, rat; settings: Rattus norvegicus, 120 h; 250 nM; read-out: ChAT Activity (% of Control)
Please provide the amount together with its unit, number first.

Q) Recorded activity at 0.25 µM for `O=C1NCc2c1c1c(c3[nH]c4ccc(F)cc4c23)Cc2ccccc2-1` , please?
A) 389%

Q) Repeat for the following compound: `C#Cc1ccc2[nH]c3c4c(c5c(c3c2c1)CNC5=O)-c1ccccc1C4`
A) 131%

Q) Repeat for the following compound: `O=C1NCc2c1c1c(c3c2c2ccccc2n3CCO)Cc2ccccc2-1`
A) 189%

Q) Repeat for the following compound: `O=C1NCc2c1c1c(c3[nH]c4ccc(CCc5ccccn5)cc4c23)Cc2ccccc2-1`
A) 192%
